Let's go through some recorded pIC50 values for human eIF4E protein (Homo sapiens) together.
pIC50: −log10 of the molar value.

Look over these answered cases.
Req: For the molecule Cc1cc(-c2cc(Cl)ccc2OCCn2c(C)nc3c(c2=O)CC(N2CCC4(CC2)CC4(F)F)CC3)c2scc(C(=O)O)c2n1 (stereo not drawn) [Compound 174] , give its reported pIC50.
Resp: > 7.00

Req: For the molecule Cc1cc(-c2cc(Cl)ccc2OCCn2c(C)nc3c(c2=O)CC(N2CC4(COC4)C2)CC3)c2scc(C(=O)O)c2n1 (stereo not drawn) [Compound 20] , give its reported pIC50.
Resp: > 7.00

---
Req: For the molecule Cc1cc(-c2cc(Cl)ccc2OCCn2c(C)nc3c(c2=O)C[C@@H](N2[C@@H]4CC[C@H]2C[C@@H](OC(F)(F)F)C4)CC3)c2scc(C(=O)O)c2n1 (single isomer, unassigned) [Compound 396] , give its reported pIC50.
Resp: > 7.00
